Test System: SNAP^C145A (Homo sapiens, UniProt P16455, A127T/A154D/C145A/C150Q/C62A/G131K/G132T/G153L/K125A/K32I/L33F/M134L/N157G/Q115S/Q116H/R128A/R135S/S151G/S152D/S159E)
Construct: made in house; host or cells: E. coli BL21(DE3)-pLysS
Sequence (P16455 1-182 with the stated changes limits assumed): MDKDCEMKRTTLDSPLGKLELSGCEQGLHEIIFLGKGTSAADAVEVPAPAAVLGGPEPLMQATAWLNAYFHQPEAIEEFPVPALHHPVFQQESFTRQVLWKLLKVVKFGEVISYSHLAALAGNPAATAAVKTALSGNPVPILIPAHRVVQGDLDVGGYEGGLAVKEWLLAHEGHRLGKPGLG
Experiment Notes: Affinity of SNAP^C145A for nonfluorescent substrates via FP competition assay against CP-TMR
Type: binding
Conditions Used: FP competition against CP-TMR, room temperature
Below, each entry is listed with its recorded Kd.

{"Structure Notation": "CC(=O)NCc1ccc(COc2cc(Cl)nc(N)n2)cc1", "Kd": "201 µM"}
{"Structure Notation": "CC(=O)NCc1ccc(COc2nccc(N)n2)cc1", "Kd": "416 µM"}

---

Below, each entry is listed with its recorded Kd.
Test System: HaloTag7 (HT7) (Rhodococcus sp., UniProt P59336, A155T/A167V/A224E/C128F/C176G/D78G/E160K/E257K/G292T/H272N/K175M/K195N/L47V/L88M/N227D/P291S/S2A/S58T/T264A/V172T/Y273L/Y87F)
Sequence (P59336 other isoform, or with tags, fused parts or gaps with the stated changes): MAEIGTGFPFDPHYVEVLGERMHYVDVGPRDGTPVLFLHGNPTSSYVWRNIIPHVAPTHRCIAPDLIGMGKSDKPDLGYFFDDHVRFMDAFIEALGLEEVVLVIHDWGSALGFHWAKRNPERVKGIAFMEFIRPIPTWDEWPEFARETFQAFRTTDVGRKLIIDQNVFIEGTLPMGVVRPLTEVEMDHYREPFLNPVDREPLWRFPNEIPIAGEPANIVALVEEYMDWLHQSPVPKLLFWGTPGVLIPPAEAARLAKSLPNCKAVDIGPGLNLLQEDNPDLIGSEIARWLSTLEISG
Experiment Notes: HT7 labeling kinetics via stopped flow (fluorescence anisotropy)

{"Compound": "CN(C)c1ccc2c(c1)C(C)(C)C1=CC(=[N+](C)C)C=CC1=C2c1cc(C(=O)NCCOCCOCCCCCCCl)ccc1C(=O)[O-] [CA-CPY, chloroalkane-PEG-carbopyronine]", "Value Unit": "nM", "Kd": 46}
{"Compound": "CN(C)c1ccc2c(-c3cc(C(=O)NCCOCCOCCCCCCCl)ccc3C(=O)[O-])c3ccc(=[N+](C)C)cc-3oc2c1 [CA-TMR, chloroalkane-PEG-tetramethylrhodamine]", "Value Unit": "nM", "Kd": 327}

---

Test System: SNAP^C145A (Homo sapiens, UniProt P16455, A127T/A154D/C145A/C150Q/C62A/G131K/G132T/G153L/K125A/K32I/L33F/M134L/N157G/Q115S/Q116H/R128A/R135S/S151G/S152D/S159E)
Construct: made in house; host or cells: E. coli BL21(DE3)-pLysS
Experiment Notes: Affinity of SNAP^C145A for BG and CP fluorescent substrates by fluorescence polarization
Assay type: binding
Conditions Used: SNAP^C145A, fluorescence polarization, room temperature
Attribute Measured: Kd (nM)

{"Compound": "CN(C)c1ccc2c(-c3cc(C(=O)NCc4ccc(COc5nc(N)nc6[nH]cnc56)cc4)ccc3C(=O)[O-])c3ccc(=[N+](C)C)cc-3oc2c1 [BG-TMR]", "Test Value": 680}

---

Test System: HT7^D106A (Rhodococcus sp., UniProt P59336, A155T/A167V/A224E/C128F/C176G/D106A/D78G/E160K/E257K/G292T/H272N/K175M/K195N/L47V/L88M/N227D/P291S/S2A/S58T/T264A/V172T/Y273L/Y87F)
Construct: made in house; host or cells: E. coli BL21(DE3)-pLysS
Sequence (P59336 other isoform, or with tags, fused parts or gaps with the stated changes): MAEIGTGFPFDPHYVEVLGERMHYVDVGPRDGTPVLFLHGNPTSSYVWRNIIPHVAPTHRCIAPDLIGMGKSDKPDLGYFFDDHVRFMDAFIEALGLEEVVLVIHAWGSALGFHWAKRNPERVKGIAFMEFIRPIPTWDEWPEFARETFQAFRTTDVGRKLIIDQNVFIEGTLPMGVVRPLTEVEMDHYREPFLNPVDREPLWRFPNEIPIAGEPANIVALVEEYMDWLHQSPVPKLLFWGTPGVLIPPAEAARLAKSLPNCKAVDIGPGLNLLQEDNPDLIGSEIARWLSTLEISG
Experiment Notes: Affinity of HT7^D106A for CA-Ac via FP competition assay against CA-TMR
Type: binding
pKd: −log10 of the molar value.

{"Compound": "CC(=O)NCCOCCOCCCCCCCl [CA-Ac, acetylated chloroalkane]", "pKd": 2.58}
